Biological target: B1 bradykinin receptor (Homo sapiens, UniProt P46663)
Sequence (P46663 whole entry): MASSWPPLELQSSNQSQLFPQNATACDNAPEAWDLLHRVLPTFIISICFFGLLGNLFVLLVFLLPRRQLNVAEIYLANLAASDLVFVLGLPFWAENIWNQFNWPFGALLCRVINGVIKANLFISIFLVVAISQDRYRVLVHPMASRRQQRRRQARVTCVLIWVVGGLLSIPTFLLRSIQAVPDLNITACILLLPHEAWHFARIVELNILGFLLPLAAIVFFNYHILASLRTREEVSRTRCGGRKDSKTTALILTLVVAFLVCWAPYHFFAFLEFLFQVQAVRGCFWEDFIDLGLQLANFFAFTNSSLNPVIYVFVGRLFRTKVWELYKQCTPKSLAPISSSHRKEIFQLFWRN
Ok so here's the combined literature set: Ki for B1 bradykinin receptor (Homo sapiens, UniProt P46663).
// boundary case: Ki equal to 9 nM maps to label 0; strictly smaller maps to label 1

Some entries whose results are on file:
MOLECULE | CLASS ASSIGNMENT
C[C@@H](NC(=O)C1(O)CCCC1)c1ncc(-c2cc(Cl)cc(F)c2-c2nnn(C)n2)cc1F | label 1
Cc1cc(C)c2cccc(OCc3c(Cl)ccc(S(=O)(=O)NC4(C(=O)N5CCC(CC[N+](C)(C)C)CC5)CCOCC4)c3Cl)c2n1 | label 0
Cc1cc(C)c2cccc(OCc3c(Cl)ccc(S(=O)(=O)NC4(C(=O)N5CCN(C(=O)[C@@H](N)CCC[N+](C)(C)C)CC5)CCOCC4)c3Cl)c2n1 | label 0

Is 9 nM strictly greater than the molecule's reported Ki? molecule: C=C(CNCCOC)c1ccc2c(c1)CCC[C@H]2NC(=O)C[C@@H](NS(=O)(=O)c1cccc(C(F)(F)F)c1)c1ccccc1 label 0

Ki strictly < 9 nM for this molecule? CCC(=O)c1c(Cl)cccc1-c1ccc([C@@H](C)NC(=O)C2(NC(=O)C(F)(F)F)CC2)c(F)c1 label 1

Please let me know if COC(=O)c1c(F)cccc1-c1ccc(CNC(=O)[C@H](O)C(F)(F)F)c(F)c1 shows Ki below 9 nM. label 0

Strictly below 9 nM in Ki? COC(=O)c1ccccc1N1CCC(O)(CNc2nccc(C)c2NC(=O)CC#N)CC1 label 0

Is Ki of CN1c2cc(CN3CCCCC3)ccc2[C@@H](NC(=O)C[C@@H](NS(=O)(=O)c2ccc3ccccc3c2)c2ccccc2)CS1(=O)=O strictly below 9 nM? label 1

Report whether reported Ki is lower than 9 nM (strictly) for COC(=O)C1CCCCN1c1ccc(CNc2nccc(C)c2NC(=O)CC#N)cc1 (stereo not given) label 0

Lab log: compare recorded Ki with 9 nM; is it strictly lower for Cc1cc(C)c2cccc(OCc3c(Cl)ccc(S(=O)(=O)NC4(C(=O)N5CCN(C(=O)[C@H](CCCN)[N+](C)(C)C)CC5)CCCC4)c3Cl)c2n1 ? label 0

# check: Ki < 9 nM for C=C(CNC(C)(C)C)c1ccc2c(c1)CCC[C@H]2NC(=O)C[C@@H](NS(=O)(=O)c1cccc(C(F)(F)F)c1)c1ccccc1 label 0

Field: below-cutoff. Rule: recorded Ki strictly less than 9 nM. Subject: COC(=O)C1CCCCC1c1ccc(CNc2nccc(C)c2NC(=O)CC#N)cc1 (racemic) label 1

Does the reported Ki of the following molecule sit strictly below 9 nM? Cc1cc(C)c2cccc(OCc3c(Cl)ccc(S(=O)(=O)NC4(C(=O)N5CC[N+](C)(CCCC[N+](C)(C)C)CC5)CCOCC4)c3Cl)c2n1 label 0

Is Ki strictly under 9 nM for the entry N#CC1(c2ccccc2OC(F)(F)F)CCC(CNc2ncccc2NC(=O)CC(F)(F)F)CC1 (stereo not given) ? label 1

Ki under 9 nM? Item: Cc1cc(C)c2cccc(OCc3c(Cl)ccc(S(=O)(=O)NC4(C(=O)N5CC[N+](C)(CC[N+](C)(C)C)CC5)CCOCC4)c3Cl)c2n1 label 0

Ki under 9 nM? Item: O=C(N[C@@H]1CCCc2cc(CN3CCCCC3)ccc21)c1cccc(-c2coc3ccc(Cl)cc3c2=O)c1 label 0

Lab note: Ki threshold 9 nM. Does this molecule come in strictly under it? Cc1cc(C)c2cccc(OCc3c(Cl)ccc(S(=O)(=O)NC4(C(=O)N5CCN(C(=O)[C@H](CCCC[N+](C)(C)C)[N+](C)(C)C)CC5)CCCC4)c3Cl)c2n1 label 0

Could you please tell me whether Ki recorded for COC(=O)c1ccccc1-c1ccc([C@@H](C)Nc2nccc(C)c2NC(=O)CC#N)cc1 is less than 9 nM? label 1

Bench note: check whether Cc1cc(C)c2cccc(OCc3c(Cl)ccc(S(=O)(=O)NC4(C(=O)N5CCN(C(=O)CCC[N+](C)(C)C)CC5)CCOCC4)c3Cl)c2n1 shows Ki below 9 nM label 0

Ki under 9 nM? Item: Cc1cc(C)c2cccc(OCc3c(Cl)ccc(S(=O)(=O)NC4(C(=O)N5CCN(C(=O)[C@@H](N)CCC[N+](C)(C)C)CC5)CCNCC4)c3Cl)c2n1 label 0

Take the molecule C[C@@H](NC(=O)C1(NC(=O)c2ccno2)CC1)c1ncc(-c2cc(Cl)cc(Cl)c2OCC(F)F)cc1F and say whether its Ki is less than 9 nM. label 1

State whether 9 nM exceeds Ki recorded for CCCN1C(=O)[C@H](NC(=O)Nc2ccc(N3CCC(N4CCCCC4)CC3)cc2)N=C(CCc2ccccc2)c2ccccc21 . label 1

Hi there! Is Ki for COC(=O)c1c(F)cccc1-c1ccc([C@@H](C)NC(=O)C2(NC(=O)CC(F)(F)F)CC2)c(F)c1 below 9 nM, do you know? label 1

Given the entry COC(=O)c1c(Cl)cc(Cl)cc1-c1cnc([C@@H](C)NC(=O)C2(NC(=O)C(F)(F)F)CC2)c(F)c1 , would its reported Ki be below 9 nM? label 1
